Cited source for all entries: patent US20260132197A1

# TESTED_TARGET: T1, Human CD47-C33G (human, UniProt Q08722 19-135)
# T1 construct: also called CD47 mutein with C33G mutation
# T1 sequence (Q08722 19-135 C33G limits assumed): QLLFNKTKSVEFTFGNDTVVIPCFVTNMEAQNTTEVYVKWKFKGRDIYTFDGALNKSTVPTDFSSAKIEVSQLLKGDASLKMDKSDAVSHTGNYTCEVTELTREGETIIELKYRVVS
# EXPERIMENTAL_PROTOCOL: SPR, IgG captured, CD47 in flow; exp 2;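 further: rates derived from association and dissociation curves, KD estimated from them, C33G mutein used to avoid CD47 IgV homodimers for true monovalent affinity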
Recorded measurements of Kd, one per entry
Unit nM implied. Number only.

Previously resolved entries follow.
{"columns": ["BINDER", "OBS_VALUE"],
 "data": [
  ["108VH10 / 108VL10.Ma (antibody, V domains shown, 4D5-framework series; constant regions not restated for this series; also called VH10 VL10.Ma) VH: EVQLVESGGGLVQPGGSLRLSCAASGYSFTHHWIHWVRQAPGKGLEWVAMIDPSDSETRLSQKFKDRFTISADTSKNTAYLQMNSLRAEDTAVYYCSRLGRYYFDYWGQGTLVTVSS VL: DIQMTQSPSSLSASVGDRVTITCRASQSISSYLNWYQQKPGKAPKLLIYGASNRYTGVPSRFSGSRSGTDFTLTISSLQPEDFATYYCGESYGHLYTFGQGTKVEIK", 8],
  ["108VH10 / 108VL10.Md (antibody, V domains shown, 4D5-framework series; constant regions not restated for this series; also called VH10 VL10.Md) VH: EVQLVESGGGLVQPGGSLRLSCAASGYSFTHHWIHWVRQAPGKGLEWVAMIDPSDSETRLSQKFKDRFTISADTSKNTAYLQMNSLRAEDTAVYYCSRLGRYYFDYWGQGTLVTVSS VL: DIQMTQSPSSLSASVGDRVTITCRASENVGTYISWYQQKPGKAPKLLIYGASNRYSGVPSRFSGSRSGTDFTLTISSLQPEDFATYYCGESYGHLYTFGQGTKVEIK", 42],
  ["108VH10 / 108VL10.Mb (antibody, V domains shown, 4D5-framework series; constant regions not restated for this series; also called VH10 VL10.Mb) VH: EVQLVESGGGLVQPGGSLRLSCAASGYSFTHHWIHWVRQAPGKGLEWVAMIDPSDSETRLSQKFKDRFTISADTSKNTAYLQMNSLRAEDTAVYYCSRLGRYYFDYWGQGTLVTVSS VL: DIQMTQSPSSLSASVGDRVTITCRASENVGTYISWYQQKPGKAPKLLIYAASNRYTGVPSRFSGSRSGTDFTLTISSLQPEDFATYYCGESYGHLYTFGQGTKVEIK", 330],
  ["108VH10 / 108VL10.Mc (antibody, V domains shown, 4D5-framework series; constant regions not restated for this series; also called VH10 VL10.Mc) VH: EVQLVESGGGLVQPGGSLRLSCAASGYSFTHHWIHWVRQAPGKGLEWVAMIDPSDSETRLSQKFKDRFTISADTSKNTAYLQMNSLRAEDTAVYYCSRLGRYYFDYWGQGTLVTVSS VL: DIQMTQSPSSLSASVGDRVTITCRASENVGTYISWYQQKPGKAPKLLIYGASSRYTGVPSRFSGSRSGTDFTLTISSLQPEDFATYYCGESYGHLYTFGQGTKVEIK", 64],
  ["108VH10.Mb / 108VL10.M1 (antibody, V domains shown, 4D5-framework series; constant regions not restated for this series; also called VH10.Mb VL10.M1) VH: EVQLVESGGGLVQPGGSLRLSCAASGYSFTHHWMHWVRQAPGKGLEWVAMIDPSDSETRLSQKFKDRFTISADTSKNTAYLQMNSLRAEDTAVYYCSRLGRYYFDYWGQGTLVTVSS VL: DIQMTQSPSSLSASVGDRVTITCRASENVGTYISWYQQKPGKAPKLLIYGASNRYTGVPSRFSGSRSGTDFTLTISSLQPEDFATYYCGESYGHLYTFGQGTKVEIK", 39]
]}

Field: next binder
Recorded result, 108VH10.Mf / 108VL10.M1 (antibody, V domains shown, 4D5-framework series; constant regions not restated for this series; also called VH10.Mf VL10.M1) VH: EVQLVESGGGLVQPGGSLRLSCAASGYSFTHHWIHWVRQAPGKGLEWVAMIDPSDSETRLVDSVKGRFTISADTSKNTAYLQMNSLRAEDTAVYYCSRLGRYYFDYWGQGTLVTVSS VL: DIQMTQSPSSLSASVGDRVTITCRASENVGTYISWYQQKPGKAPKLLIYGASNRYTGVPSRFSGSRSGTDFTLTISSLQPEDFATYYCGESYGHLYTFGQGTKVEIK , Kd: 290
